Every entry's value here was drawn from patent US20240090503A1.

Recorded Test C disease control rating by entry
# System: Puccinia recondita f. sp. tritici (the causal agent of wheat leaf rust)
# protocolNotes: Test C: preventive spray on wheat seedlings, wheat leaf rust, visual disease rating
# Format: in vivo
# details: test suspension 10 ppm; wheat seedlings
Enter your answer as a number in %; do not include the unit.

# compound, measuredMetric, resultNumber
measured = [
    ("COCCNC(=O)c1nn(Cc2ccc(-c3noc(C(F)(F)F)n3)cc2)c2ccccc12", "Test C disease control rating", 100),
    ("CSc1nnn(Cc2ccc(-c3noc(C(F)(F)F)n3)cc2)c1C", "Test C disease control rating", 92),
    ("CN1CCCC1COC(=O)c1cnn(Cc2ccc(-c3noc(C(F)(F)F)n3)cc2)c1 (centres unmarked)", "Test C disease control rating", 94),
    ("CC(C)NC(=O)c1coc(Cc2ccc(-c3noc(C(F)(F)F)n3)cc2)n1", "Test C disease control rating", 99),
    ("COc1ccc2c(cnn2Cc2ccc(-c3noc(C(F)(F)F)n3)s2)c1", "Test C disease control rating", 98),
    ("CCOC(=O)c1cc(C(C)C)n(Cc2ccc(-c3noc(C(F)(F)F)n3)cc2)n1", "Test C disease control rating", 68),
    ("CCOC(=O)c1cnn(C(C)c2ccc(-c3noc(C(F)(F)F)n3)s2)c1 (centres unmarked) [compound 246]", "Test C disease control rating", 100),
    ("CC(=O)COC(=O)c1cnn(Cc2ccc(-c3noc(C(F)(F)F)n3)cc2)c1", "Test C disease control rating", 100),
]

Report value: Test C disease control rating, system: Puccinia recondita f. sp. tritici (the causal agent of wheat leaf rust), compound: CC(C)OC(=O)c1cnn(Cc2ccc(-c3noc(C(F)(F)F)n3)cc2)c1
100
